Reported residual activity values are given for each entry in this list.
measured_on: Ephrin type-A receptor 4 (Homo sapiens)
condition_context: at 1 µM
Please reply with the bare figure in % and do not write the unit itself.

>  <smiles_string>
NC(=O)Nc1sc(-c2ccc(F)cc2)cc1C(N)=O

>  <residual activity, %>
93

$$$$

# input Tell me measured residual activity for COc1cc2nccc(Oc3ccc(NC(=O)Nc4cc(C)on4)c(Cl)c3)c2cc1OC please.
# output 26

# input Tell me measured residual activity for Nc1nc(Nc2ccc(S(N)(=O)=O)cc2)nn1C(=O)c1c(F)cccc1F please.
# output 108

# input Tell me measured residual activity for O=C(CCCc1ccc(-c2ccccc2F)cc1)Nc1ccc(O)cc1 please.
# output 108

# input Tell me measured residual activity for CC(C)c1nn(-c2c(Cl)cccc2Cl)c2nc(Cc3ccc(OCCO)cc3)[nH]c(=O)c12 please.
# output 121

# input Tell me measured residual activity for CCCCc1c(-c2ccc(OC)cc2)[nH]c2nccnc12 please.
# output 108

# input Tell me measured residual activity for O=C1Nc2ccc(Cl)cc2/C1=C/c1cc(Cl)c(O)c(Cl)c1 please.
# output 99

# input Tell me measured residual activity for COc1ccc2c(c1)c(C1=C(c3c[nH]c4ccccc34)C(=O)NC1=O)cn2CCCN(C)C please.
# output 115

# input Tell me measured residual activity for Nc1ncnc2c1c(-c1ccc(Oc3ccccc3)cc1)cn2C1CCCC1 please.
# output 112

###

measured_on: Serine/threonine-protein kinase TBK1 (Homo sapiens)
condition_context: at 10 µM
Reported residual activity values are given for each entry in this list.
Please reply with the bare figure in % and do not write the unit itself.

Worked examples follow.
>  <compound>
CCOC(=O)c1c(C)[nH]c(/C=C2\C(=O)Nc3ccccc32)c1C

>  <measured_on>
Serine/threonine-protein kinase TBK1 (Homo sapiens)

>  <residual activity / %>
85

$$$$
>  <compound>
O=C(c1cc2cc(O)ccc2[nH]1)c1cc2cc(O)ccc2[nH]1

>  <measured_on>
Serine/threonine-protein kinase TBK1 (Homo sapiens)

>  <residual activity / %>
2

$$$$
>  <compound>
N#C/C(=C1/Nc2ccccc2S1)c1ccnc(NCCc2cccnc2)n1

>  <measured_on>
Serine/threonine-protein kinase TBK1 (Homo sapiens)

>  <residual activity / %>
40

$$$$

# input Tell me measured residual activity for NC(=O)c1ccc(-c2nc(-c3ccc4c(c3)OCCO4)c(-c3ccccn3)[nH]2)cc1 please.
# output 72

# input Tell me measured residual activity for CCN(CC)CCNC(=O)c1c(C)[nH]c(/C=C2\C(=O)Nc3ccc(Cl)cc32)c1C please.
# output 1

###

measured_on: Serine/threonine-protein kinase TAO3 (Homo sapiens) (UniProt Q9H2K8)
Sequence (Q9H2K8 whole entry): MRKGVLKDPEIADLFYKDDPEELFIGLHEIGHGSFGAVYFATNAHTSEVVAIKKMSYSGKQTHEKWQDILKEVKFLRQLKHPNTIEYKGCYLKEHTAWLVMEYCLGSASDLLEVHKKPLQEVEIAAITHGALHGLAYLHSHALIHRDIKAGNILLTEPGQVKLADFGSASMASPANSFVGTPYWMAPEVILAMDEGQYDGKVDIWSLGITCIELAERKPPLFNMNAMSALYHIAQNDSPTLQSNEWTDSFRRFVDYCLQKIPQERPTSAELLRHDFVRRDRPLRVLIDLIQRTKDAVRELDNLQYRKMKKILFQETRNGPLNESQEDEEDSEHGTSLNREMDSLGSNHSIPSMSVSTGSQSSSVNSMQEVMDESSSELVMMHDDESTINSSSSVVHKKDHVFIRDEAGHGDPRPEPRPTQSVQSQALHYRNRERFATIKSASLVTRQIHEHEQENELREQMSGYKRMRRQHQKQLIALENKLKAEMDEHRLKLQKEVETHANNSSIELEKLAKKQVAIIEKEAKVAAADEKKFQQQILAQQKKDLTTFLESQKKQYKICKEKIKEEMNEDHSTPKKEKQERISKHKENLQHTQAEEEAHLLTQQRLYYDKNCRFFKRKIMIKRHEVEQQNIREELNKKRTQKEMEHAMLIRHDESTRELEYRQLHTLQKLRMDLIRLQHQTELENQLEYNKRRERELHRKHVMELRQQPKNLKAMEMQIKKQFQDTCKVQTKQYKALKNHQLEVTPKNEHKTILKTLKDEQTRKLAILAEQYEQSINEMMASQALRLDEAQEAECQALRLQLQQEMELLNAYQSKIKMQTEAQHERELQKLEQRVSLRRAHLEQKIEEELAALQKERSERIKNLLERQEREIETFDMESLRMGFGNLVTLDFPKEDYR
condition_context: at 1 µM
measured_property: residual activity (%)
Please reply with the bare figure in % and do not write the unit itself.

Worked examples follow.
>  <smiles_string>
N#C/C(=C1/Nc2ccccc2S1)c1ccnc(NCCc2cccnc2)n1

>  <measured_on>
Serine/threonine-protein kinase TAO3 (Homo sapiens) (UniProt Q9H2K8)

>  <readout_units>
%

>  <reported_measurement>
84

$$$$
>  <smiles_string>
CCN(CC)CCNC(=O)c1c(C)[nH]c(/C=C2\C(=O)Nc3ccc(Cl)cc32)c1C

>  <measured_on>
Serine/threonine-protein kinase TAO3 (Homo sapiens) (UniProt Q9H2K8)

>  <readout_units>
%

>  <reported_measurement>
79

$$$$
>  <smiles_string>
CCCCc1c(-c2ccc(O)cc2)[nH]c2nccnc12

>  <measured_on>
Serine/threonine-protein kinase TAO3 (Homo sapiens) (UniProt Q9H2K8)

>  <readout_units>
%

>  <reported_measurement>
62

$$$$
>  <smiles_string>
CC(C)c1nn(-c2c(Cl)cccc2Cl)c2nc(Cc3ccc(OCCO)cc3)[nH]c(=O)c12

>  <measured_on>
Serine/threonine-protein kinase TAO3 (Homo sapiens) (UniProt Q9H2K8)

>  <readout_units>
%

>  <reported_measurement>
55

$$$$
>  <smiles_string>
CC(C)(C)c1nc2c3ccc(F)cc3c3c(=O)[nH]ccc3c2[nH]1

>  <measured_on>
Serine/threonine-protein kinase TAO3 (Homo sapiens) (UniProt Q9H2K8)

>  <readout_units>
%

>  <reported_measurement>
68

$$$$

# input Tell me measured residual activity for O=c1cc(N2CCNCC2)oc2c(-c3ccccc3)cccc12 please.
# output 98

# input Tell me measured residual activity for O=C1C(Cl)=C(N2C(=O)CCC2=O)C(=O)c2ccccc21 please.
# output 101

# input Tell me measured residual activity for O=C(O)/C=C/c1cc(Br)c(Br)c(Br)c1Br please.
# output 81
